Form field: normalized growth (one value per entry).
Experiment description: chemical genetic growth profiling, strain panel (AID 1159580);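 further: tested at 20 µM; growth read once vehicle control cultures reached saturation at 30 °C; 1 = growth at the plate median or of vehicle wells; lower values mean less growth of the strain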
Assay setup: S. cerevisiae deletion strains, growth OD, locus YBR023C, strain chs3, active compounds read low
The whole screen tested about 5,500 compounds, of which about 2,000 (36%) were called active. About 18% were inconclusive and are not listed. The list shows a part of the results.
Measured property: normalized growth

# Compound, Observed value
records = [
    ("CC(=O)c1ccc2c(c1)N(CCCN(C)C)c1ccccc1S2", 1.01),
    ("CCCc1nc(C(C)(C)O)c(C(=O)OCc2oc(=O)oc2C)n1Cc1ccc(-c2ccccc2-c2nn[nH]n2)cc1", 0.961),
    ("CCOc1nc2cccc(C(=O)OC(C)OC(=O)OC3CCCCC3)c2n1Cc1ccc(-c2ccccc2-c2nn[nH]n2)cc1 (stereo not given)", 1.03),
    ("CCCCC(=O)N(Cc1ccc(-c2ccccc2-c2nn[nH]n2)cc1)[C@H](C(=O)O)C(C)C", 1),
    ("CN1CCN(CCCN2c3ccccc3Sc3ccc(Cl)cc32)CC1", 0.868),
    ("OCCN1CCN(CCCN2c3ccccc3Sc3ccc(Cl)cc32)CC1", 0.996),
    ("C=C(C)c1cc2cc(C(C)=O)c(O)cc2o1", 0.94),
    ("Cc1cc(C)nc(NS(=O)(=O)c2ccc(N)cc2)n1", 0.982),
    ("C[C@]12CCC3C(CC[C@H]4C[C@@H](O)CC[C@]34C)C1CCC2=O (stereo not given in full)", 0.989),
    ("N#Cc1ccc2c(c1)N(CCCN1CCC(O)CC1)c1ccccc1S2", 0.982),
]
